Target: NS19-9
Test: Inhibition of NS19-9 binding by sugar chains (same test performed on NS19-9)
Conditions: read-out: 50% INHIBITION (μM) NS19-9
Description: Structure of sugar chains recognized by monoclonal antibody NKY13 was investigated on the basis of the inhibition of the binding of the NKY13 to G-50I by the following sugar chains according to the above method. The same test was performed on NS19-9.
The following molecules are shown together with reported IC50 values.

Past entries and their recorded results:
- molecule: "CC(=O)N[C@H]1[C@H](O[C@H]2[C@@H](O)[C@@H](CO)O[C@@H](O[C@H]3[C@H](O)[C@@H](O)C(O)O[C@@H]3CO)[C@@H]2O)O[C@H](CO[C@]2(C(=O)O)C[C@H](O)[C@@H](NC(C)=O)[C@H]([C@H](O)[C@H](O)CO)O2)[C@@H](O)[C@@H]1O[C@@H]1O[C@H](CO)[C@H](O)[C@H](O)[C@H]1O (stereo partly shown)"
  IC50: "> 10000 µM"
- molecule: "CC(=O)N[C@H]1[C@H](O[C@H]2[C@@H](O)[C@@H](CO)O[C@@H](O[C@H]3[C@H](O)[C@@H](O)C(O)O[C@@H]3CO)[C@@H]2O)O[C@H](CO)[C@@H](O[C@@H]2O[C@@H](C)[C@@H](O)[C@@H](O)[C@@H]2O)[C@@H]1O[C@@H]1O[C@H](CO)[C@H](O)[C@H](O[C@]2(C(=O)O)C[C@H](O)[C@@H](NC(C)=O)[C@H]([C@H](O)[C@H](O)CO)O2)[C@H]1O (stereo partly shown)"
  IC50: "11.1 µM"
- molecule: "CC(=O)N[C@H]1[C@H](O[C@H]2[C@@H](O)[C@@H](CO)O[C@@H](O[C@H]3[C@H](O)[C@@H](O)C(O)O[C@@H]3CO)[C@@H]2O)O[C@H](CO)[C@@H](O[C@@H]2O[C@@H](C)[C@@H](O)[C@@H](O)[C@@H]2O)[C@@H]1O[C@@H]1O[C@H](CO)[C@H](O)[C@H](O)[C@H]1O (stereo partly shown)"
  IC50: "2320 µM"
- molecule: "O=C(CO)N[C@H]1[C@H]([C@H](O)[C@H](O)CO)OC(O)(C(=O)O)C[C@@H]1O (stereo partly shown)"
  IC50: "> 10000 µM"
- molecule: "CC(=O)N[C@H]1[C@H](O[C@H]2[C@@H](O)[C@@H](CO)O[C@@H](O[C@H]3[C@H](O)[C@@H](O)C(O)O[C@@H]3CO)[C@@H]2O)O[C@H](CO)[C@@H](O[C@@H]2O[C@H](CO)[C@H](O)[C@H](O)[C@H]2O)[C@@H]1O[C@@H]1O[C@@H](C)[C@@H](O)[C@@H](O)[C@@H]1O (stereo partly shown)"
  IC50: "> 10000 µM"
- molecule: "CC(=O)N[C@H]1[C@H](O[C@H]2[C@@H](O)[C@@H](CO)O[C@@H](O[C@H]3[C@H](O)[C@@H](O)C(O)O[C@@H]3CO)[C@@H]2O)O[C@H](CO)[C@@H](O[C@@H]2O[C@@H](C)[C@@H](O)[C@@H](O)[C@@H]2O)[C@@H]1O[C@@H]1O[C@H](CO)[C@H](O)[C@H](O)[C@H]1O[C@@H]1O[C@@H](C)[C@@H](O)[C@@H](O)[C@@H]1O (stereo partly shown)"
  IC50: "> 10000 µM"

Please examine the following record next.
Sample CC(=O)N[C@H]1[C@H](O[C@H]2[C@@H](O)[C@@H](CO)O[C@@H](O[C@H]3[C@H](O)[C@@H](O)C(O)O[C@@H]3CO)[C@@H]2O)O[C@H](CO)[C@@H](O)[C@@H]1O[C@@H]1O[C@H](CO)[C@H](O)[C@H](O)[C@H]1O (stereo partly shown) ; IC50 observed: > 10000 µM
